Source of measurements: patent US20140087995A1

targetDesc: T1, human amylin receptor (amylin 3(a) receptor: human calcitonin receptor with RAMP-3) (human, UniProt P30988 25-474; O60896 24-148)
T1 construct: whole, on cells; Assay used cell membranes of the Amylin 3(a)/CRE-luc BHK cells, not intact cells; also called hAmylin-R; hAmylinR
T1 sequence (looked up) 1: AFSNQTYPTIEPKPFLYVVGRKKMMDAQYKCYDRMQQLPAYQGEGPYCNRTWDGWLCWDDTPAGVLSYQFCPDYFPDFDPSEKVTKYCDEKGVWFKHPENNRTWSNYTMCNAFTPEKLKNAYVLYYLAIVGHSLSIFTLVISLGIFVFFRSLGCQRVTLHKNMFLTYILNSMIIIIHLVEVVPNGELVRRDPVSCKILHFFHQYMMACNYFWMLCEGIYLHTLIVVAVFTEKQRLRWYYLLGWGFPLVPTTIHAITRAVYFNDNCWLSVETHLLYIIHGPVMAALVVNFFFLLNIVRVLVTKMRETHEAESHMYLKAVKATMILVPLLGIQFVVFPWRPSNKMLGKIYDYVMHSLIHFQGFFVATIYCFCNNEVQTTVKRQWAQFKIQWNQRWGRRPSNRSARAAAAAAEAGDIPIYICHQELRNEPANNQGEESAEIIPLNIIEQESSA
T1 sequence (looked up) 2: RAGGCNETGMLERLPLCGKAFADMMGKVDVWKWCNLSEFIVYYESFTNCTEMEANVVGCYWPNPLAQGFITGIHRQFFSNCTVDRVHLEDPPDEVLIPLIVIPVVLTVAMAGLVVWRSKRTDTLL
assayExplanation: SPA competition with 125I-rat amylin on membranes of BHK cells with human calcitonin receptor and RAMP-3 (Assay V)
Numbered stars: 1 amine (or outer) side, 2 acyl side, 3 side chain; on linkers, the order of the positions; unused ones are H or OH. Bridge positions count the residues as written; N and C are the ends. Side chains are listed from the residue outwards. Ends that are not written are not given here. * marks the point of attachment. C20 diacid = O=C(O)CCCCCCCCCCCCCCCCCCC(=O)*; γGlu = O=C(O)[C@H](CCC(=O)[*:2])N[*:1]
endpoint: IC50 (nM)

I. K([γGlu-γGlu-C20 diacid])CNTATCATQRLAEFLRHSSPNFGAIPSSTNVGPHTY-NH2 (disulfide 2-7 (inferred))
II. K([γGlu-γGlu-C20 diacid])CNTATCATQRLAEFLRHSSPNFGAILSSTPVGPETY-NH2 (disulfide 2-7 (inferred))
*Q* Kindly identify the item with the lower IC50 figure among these two: I and II API: response body contains the label of the selected item.
*A* II

I. K([γGlu-C20 diacid])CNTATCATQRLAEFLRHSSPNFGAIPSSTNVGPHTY-NH2 (disulfide 2-7)
II. {C20 diacid-γGlu}-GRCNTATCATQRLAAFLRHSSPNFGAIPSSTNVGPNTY-NH2 (disulfide 3-8)
*Q* Lower value for measured IC50? Options: I , II Pick one; state its label.
*A* II
